Task for the reader: assign each of the following molecules its reported EC50.
# target-desc: UniProt:P28335
# test-summary: Human 5-HT2C functional assay in CHO-K1 cells (calcium flux, FLIPR)
# Type: cell-based
# Set-up: expressed in transfected cells; host or cells: CHO-K1 cells
Give bare numbers, in nM.

Would you please look over these solved cases?
Input line: # input molecule: Clc1cc(Cl)c2c(c1)N1CCNC[C@@H]1CCO2 ; wanted: its EC50
Output line: 10

Input line: Please give the measured EC50 for this molecule: Clc1cc2c(cc1Cl)N1CCNC[C@@H]1CCO2
Output line: 2

Input line: Give its EC50 value. Item: O=C1CC2CNCCN2c2cc(F)ccc2N1 (stereo not shown)
Output line: 20

Input line: Look up EC50: O=C1C[C@H]2CNCCN2c2ccc(Cl)cc2N1
Output line: 20

For the 3 molecules below, give their EC50 values.
1. [2H]c1cccc2c1OCC[C@H]1CNCCN21
2. Cc1ccc2c(c1)N1CCNC[C@@H]1CCO2
3. Fc1cccc2c1OCC[C@H]1CNCCN21

Output line:
5
2
0.4

Give me EC50 for each of these molecules, listed below.
1. c1ccc2c(c1)OCC[C@H]1CNCCN21
2. C[C@@H]1CN2c3ccccc3OCC[C@H]2CN1
3. C[C@@H]1C[C@H]2CNCCN2c2ccccc2O1 (single isomer, unassigned)

Output line:
[1, 100, 6]

Hey, quick one: what's EC50 for each of these?
1. Clc1ccc2c(c1)OCC[C@H]1CNCCN21
2. Cc1cccc2c1NC(=O)CC1CNCCN21 (stereo not shown)
3. C[C@H]1CN2c3ccccc3OCC[C@H]2CN1
4. O=C1CC2CNCCN2c2cc(-c3ccccn3)ccc2N1 (stereo not shown)
5. O=C1CC2CNCCN2c2cccc(Cl)c2N1 (stereo not shown)

Output line:
1. 8
2. 5
3. 100
4. 2
5. 5

====

# target-desc: 5HT2C receptors (Homo sapiens)
# Sequence (P28335 33-458): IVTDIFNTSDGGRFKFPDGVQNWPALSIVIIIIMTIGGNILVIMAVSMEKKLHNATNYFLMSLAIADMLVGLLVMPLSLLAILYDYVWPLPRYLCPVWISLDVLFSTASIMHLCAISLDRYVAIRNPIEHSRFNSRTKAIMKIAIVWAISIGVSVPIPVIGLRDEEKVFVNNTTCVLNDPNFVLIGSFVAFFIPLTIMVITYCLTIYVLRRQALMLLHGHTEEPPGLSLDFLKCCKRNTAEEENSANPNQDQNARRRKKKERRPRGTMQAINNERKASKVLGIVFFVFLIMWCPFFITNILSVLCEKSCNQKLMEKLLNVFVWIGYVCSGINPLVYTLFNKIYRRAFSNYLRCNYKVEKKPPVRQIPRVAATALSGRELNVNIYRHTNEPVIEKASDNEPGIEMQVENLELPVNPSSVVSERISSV
# test-summary: Human 5-HT2C functional assay in CHO-K1 cells (calcium flux, FLIPR)
# Assay type: cell-based
# Set-up: expressed in transfected cells; host or cells: CHO-K1 cells
# condition-context: CHO-K1 cells; percentage relative to the effect of serotonin; read-out: Emax (%), 5-HT2c Agonist Activity
# Protocol: (iii) Human 5-HT2C and 5-HT2B Functional Assay in CHO-K1 Cells […] Fluorescence measurements were read at 25° C. at an excitation wavelength of 480 nm and an emission wavelength of 530 nm in FLIPR (MDS). Baseline fluorescence was measured for the first 10 seconds and then 15 μL of 4× concentrations of serotonin/test compounds was added to the cell plate. The fluorescence intensity was captured every second for the first 1 minute followed by every 5 seconds for an additional 2 minutes. […]
Exercise: for every item that follows, state its recorded Emax.
One number for each entry, in %.

Input line: What value of Emax has been recorded for this entry: CCN1CCC2CN(C)CCN2c2ccc(Cl)cc21 (centres unmarked)
Output line: 90

Input line: Which Emax value is on record for COc1ccc(-c2ccc3c(c2)N2CCNCC2CC(=O)N3)cc1 (centres unmarked) ?
Output line: 110

Input line: Name the recorded Emax for C[C@@H](Oc1ccc2c(c1)N1CCNC[C@@H]1CC(=O)N2)c1cc(F)ccc1F .
Output line: 100

Could you now look at the following compound, please?
Input line: Give the measured Emax of FC(F)(F)c1cccc2c1OCC[C@H]1CNCCN21 .
Output line: 110
